target: HIV-1 Env of pseudovirus CNE52 (HIV-1); assay: cell-based or functional assay
endpoint_name: neutralization IC50 (µg/mL)

{"columns": ["binder", "endpoint_name", "observed_measurement"],
 "data": [
  ["MS-81 (antibody, V domains shown) VH: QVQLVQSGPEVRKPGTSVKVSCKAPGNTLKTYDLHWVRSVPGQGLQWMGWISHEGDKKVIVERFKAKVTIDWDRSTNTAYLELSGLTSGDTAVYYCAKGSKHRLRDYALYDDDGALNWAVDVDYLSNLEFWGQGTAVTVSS VL: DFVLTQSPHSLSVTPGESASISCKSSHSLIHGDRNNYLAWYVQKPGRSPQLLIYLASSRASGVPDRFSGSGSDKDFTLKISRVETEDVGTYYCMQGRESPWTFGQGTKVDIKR", "neutralization IC50", 0.212],
  ["MS-88 (antibody, V domains shown) VH: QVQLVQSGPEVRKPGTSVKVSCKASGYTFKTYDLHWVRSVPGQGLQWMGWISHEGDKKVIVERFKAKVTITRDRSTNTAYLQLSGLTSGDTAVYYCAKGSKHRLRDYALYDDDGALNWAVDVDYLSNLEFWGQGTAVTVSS VL: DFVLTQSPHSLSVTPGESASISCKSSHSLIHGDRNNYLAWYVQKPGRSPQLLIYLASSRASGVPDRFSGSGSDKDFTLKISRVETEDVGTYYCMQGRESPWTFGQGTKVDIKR", "neutralization IC50", 5.86],
  ["MS-77 (antibody, V domains shown) VH: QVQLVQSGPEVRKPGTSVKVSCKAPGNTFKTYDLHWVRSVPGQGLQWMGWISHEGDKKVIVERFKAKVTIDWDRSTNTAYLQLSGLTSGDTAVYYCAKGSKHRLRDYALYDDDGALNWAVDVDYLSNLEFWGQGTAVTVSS VL: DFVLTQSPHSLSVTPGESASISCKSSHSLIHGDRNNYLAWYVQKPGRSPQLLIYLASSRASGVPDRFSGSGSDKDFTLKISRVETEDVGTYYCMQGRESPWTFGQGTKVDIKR", "neutralization IC50", 0.322],
  ["MS-82 (antibody, V domains shown) VH: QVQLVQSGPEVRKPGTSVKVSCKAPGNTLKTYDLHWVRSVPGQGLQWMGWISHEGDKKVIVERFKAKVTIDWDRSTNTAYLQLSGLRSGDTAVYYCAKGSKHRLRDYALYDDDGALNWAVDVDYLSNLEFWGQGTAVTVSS VL: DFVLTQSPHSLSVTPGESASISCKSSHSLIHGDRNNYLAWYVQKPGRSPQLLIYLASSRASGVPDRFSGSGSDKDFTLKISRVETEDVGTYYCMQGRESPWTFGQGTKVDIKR", "neutralization IC50", 0.206]
]}
